These measurements were taken from ChEMBL document CHEMBL1153383.

Biological target: UniProt:P30542
Sequence (P30542 whole entry): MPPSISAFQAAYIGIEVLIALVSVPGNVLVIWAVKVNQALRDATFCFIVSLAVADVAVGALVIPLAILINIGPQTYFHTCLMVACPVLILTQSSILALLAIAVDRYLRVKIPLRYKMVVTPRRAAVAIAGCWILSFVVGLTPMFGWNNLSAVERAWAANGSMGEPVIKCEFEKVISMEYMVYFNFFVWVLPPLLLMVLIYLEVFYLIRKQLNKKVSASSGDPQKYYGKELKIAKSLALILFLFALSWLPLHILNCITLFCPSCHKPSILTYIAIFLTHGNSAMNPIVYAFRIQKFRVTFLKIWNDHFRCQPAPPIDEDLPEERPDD
Assay: Displacement of [3H]CCPA from human recombinant adenosine A1 receptor expressed in CHO cells at 10 uM
Assay type: cell-based
measurement.kind: Activity (%)
Respond with the bare value in %.

Examples from the recorded data:
[
  {
    "smiles.data": "Clc1ccc(Nc2nc3ccccc3c3[nH]c(C4CCCCC4)nc23)c(Cl)c1",
    "assay.system": "UniProt:P30542",
    "measurement.units": "%",
    "Activity": 48
  },
  {
    "smiles.data": "N[C@H]1CC[C@@H](c2nc3c(Nc4ccc(Cl)c(Cl)c4)nc4ccccc4c3[nH]2)CC1",
    "assay.system": "UniProt:P30542",
    "measurement.units": "%",
    "Activity": 31.7
  },
  {
    "smiles.data": "Clc1ccc(Nc2nc3ccccc3c3[nH]c(C45CC6CC(CC(C6)C4)C5)nc23)cc1Cl",
    "assay.system": "UniProt:P30542",
    "measurement.units": "%",
    "Activity": 13.8
  }
]

-- ask State Activity (UniProt:P30542) of "c1ccc2c(c1)nc(Nc1ccc3c(c1)OCO3)c1nc(C3CCCCC3)[nH]c12" .
-- reply 65.4

-- ask Name the value of Activity reported for "FC(F)(F)c1cc(Nc2nc3ccccc3c3nc(C4CCCCC4)[nH]c23)cc(C(F)(F)F)c1" when tested on UniProt:P30542.
-- reply 7.2
